target: Peptide 1593 (…) (Mycobacterium tuberculosis); assay: ELISA, NNK clone supernatant on coated peptide
endpointName: ratio (OD450 to WT OD450)

Below, each entry is followed by its recorded ratio (OD450 to WT OD450) result.
{"binder": "65D3 chimeric Fab, NNK library L3 mutant S to T (VL S25T) (Fab, V domains shown) VH: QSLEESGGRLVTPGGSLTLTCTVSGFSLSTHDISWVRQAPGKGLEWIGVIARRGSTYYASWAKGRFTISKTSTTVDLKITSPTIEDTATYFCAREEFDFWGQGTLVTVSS VL: AVLTQTASPVSAAVGGTVTISCQSTQSVYNNKELSWFQQKPGQPPKLLISYASTLASGVPSRFKGSGSGTQFTLTISDLECDDAATYYCLGGYASTIDMWAFGGGTEVVVK", "reportedValue": "1.19 fold of WT"}
{"binder": "65D3 chimeric Fab, NNK library L3 mutant S to L (VL S25L) (Fab, V domains shown) VH: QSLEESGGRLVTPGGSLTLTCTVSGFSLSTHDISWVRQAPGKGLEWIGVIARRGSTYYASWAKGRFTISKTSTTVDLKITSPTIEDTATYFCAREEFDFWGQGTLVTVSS VL: AVLTQTASPVSAAVGGTVTISCQSLQSVYNNKELSWFQQKPGQPPKLLISYASTLASGVPSRFKGSGSGTQFTLTISDLECDDAATYYCLGGYASTIDMWAFGGGTEVVVK", "reportedValue": "1.18 fold of WT"}

Kindly note the recorded ratio (OD450 to WT OD450) for 65D3 chimeric Fab, NNK library L3 mutant S to K (VL S25K) (Fab, V domains shown) VH: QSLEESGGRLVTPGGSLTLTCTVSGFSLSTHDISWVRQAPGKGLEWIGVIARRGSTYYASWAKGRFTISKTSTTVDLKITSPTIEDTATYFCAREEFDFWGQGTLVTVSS VL: AVLTQTASPVSAAVGGTVTISCQSKQSVYNNKELSWFQQKPGQPPKLLISYASTLASGVPSRFKGSGSGTQFTLTISDLECDDAATYYCLGGYASTIDMWAFGGGTEVVVK , which is 1.22 fold of WT

Data provenance: patent US12649778
